# Target or test system: human c-Mpl receptor (Homo sapiens)
# Construct: expressed in transfected cells
# Sequence (P40238 26-635): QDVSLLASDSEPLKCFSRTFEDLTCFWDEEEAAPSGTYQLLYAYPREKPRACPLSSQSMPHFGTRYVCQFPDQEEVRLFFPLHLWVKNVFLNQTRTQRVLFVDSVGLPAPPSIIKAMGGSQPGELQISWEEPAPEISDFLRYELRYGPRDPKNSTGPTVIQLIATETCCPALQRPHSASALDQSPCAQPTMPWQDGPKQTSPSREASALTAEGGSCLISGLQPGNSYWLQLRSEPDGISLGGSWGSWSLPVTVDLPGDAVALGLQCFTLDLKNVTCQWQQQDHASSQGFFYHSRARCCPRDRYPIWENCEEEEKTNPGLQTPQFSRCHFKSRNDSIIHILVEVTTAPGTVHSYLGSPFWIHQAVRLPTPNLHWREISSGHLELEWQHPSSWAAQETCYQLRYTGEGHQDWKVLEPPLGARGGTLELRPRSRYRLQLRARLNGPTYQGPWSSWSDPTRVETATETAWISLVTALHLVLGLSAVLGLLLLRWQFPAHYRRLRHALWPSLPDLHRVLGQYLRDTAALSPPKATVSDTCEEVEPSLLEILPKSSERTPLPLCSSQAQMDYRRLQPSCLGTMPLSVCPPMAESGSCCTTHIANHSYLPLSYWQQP
# Assay method text: Human c-Mpl-introduced Ba/F3 cell proliferative activity
# Assay type: cell-based
# Condition description: concentration showing 30% proliferation; 100% = positive control at 1 μM
What Test Example 2 EC30 was measured for each of the following?

// query Test Example 2 EC30 value for entry CCCOc1ccc(-c2nc(NC(=O)c3cnc(N4CCC(C(=O)O)CC4)cn3)sc2CN2CCCC(C)(C)C2)cc1C(F)(F)F >10 µM

Follow-up entry: C[C@@H]1CCCN1Cc1sc(NC(=O)c2cnc(N3CCC(F)(C(=O)O)CC3)cn2)nc1-c1ccc(F)c(C(F)(F)F)c1 1.1 µM

Follow-up entry: CCCC1CCCN1Cc1sc(NC(=O)c2cnc(N3CCC(C(=O)O)CC3)cn2)nc1-c1ccc(OC(C)C)c(C(F)(F)F)c1 (stereo not drawn) >10 µM

Data provenance: patent US9562044B2
